observed property: melting point

[[record]]
structure_notation = "CC(C)Nc1ncnc2c1cnn2C"
observed_property = "melting point"
test_value = "101 to 103 °C"

[[record]]
structure_notation = "CC(C)(C)n1ncc2c(NCCO)ncnc21"
observed_property = "melting point"
test_value = "75 to 77 °C"

[[record]]
structure_notation = "CC(C)(C)n1ncc2c(NCCc3c(F)cccc3Cl)ncnc21"
observed_property = "melting point"
test_value = "140 to 142 °C"

[[record]]
structure_notation = "C[C@H](Nc1ncnc2c1cnn2C)c1ccccc1"
observed_property = "melting point"
test_value = "201 to 203 °C"

[[record]]
structure_notation = "Cn1ncc2c(NCCO)ncnc21"
observed_property = "melting point"
test_value = "196 to 198 °C"

[[record]]
structure_notation = "CC(C)(C)n1ncc2c(NCCc3c(Cl)cccc3Cl)ncnc21"
observed_property = "melting point"
test_value = "154 to 156 °C"

[[record]]
structure_notation = "Cn1ncc2c(NCCc3ccc(F)cc3)ncnc21"
observed_property = "melting point"
test_value = "106 to 107 °C"

[[record]]
structure_notation = "Cn1ncc2c(NCCc3cccc(F)c3)ncnc21"
observed_property = "melting point"
test_value = "109 to 110 °C"

[[record]]
structure_notation = "Cn1ncc2c(NCc3ccc(Cl)cc3)ncnc21"
observed_property = "melting point"
test_value = "197 to 199 °C"

[[record]]
structure_notation = "Cn1ncc2c(NCc3cccc(F)c3)ncnc21"
observed_property = "melting point"
test_value = "176 to 177 °C"

[[record]]
structure_notation = "Cn1ncc2c(NCCc3c(F)cccc3Cl)ncnc21"
observed_property = "melting point"
test_value = "195 to 196 °C"

[[record]]
structure_notation = "CC(C)(C)n1ncc2c(NCc3cccc([N+](=O)[O-])c3)ncnc21"
observed_property = "melting point"
test_value = "135 to 137 °C"

[[record]]
structure_notation = "CC(C)(C)n1ncc2c(NCc3ccccc3)ncnc21"
observed_property = "melting point"
test_value = "158 to 160 °C"

[[record]]
structure_notation = "Cn1ncc2c(NCCc3ccc(Cl)cc3Cl)ncnc21"
observed_property = "melting point"
test_value = "145 to 147 °C"

[[record]]
structure_notation = "Cn1ncc2c(NCc3ccco3)ncnc21"
observed_property = "melting point"
test_value = "141 to 143 °C"

[[record]]
structure_notation = "Cn1ncc2c(NCCc3ccc(O)cc3)ncnc21"
observed_property = "melting point"
test_value = "182 to 184 °C"

[[record]]
structure_notation = "Cn1ncc2c(NCc3ccc(Cl)c(Cl)c3)ncnc21"
observed_property = "melting point"
test_value = "170 to 173 °C"

[[record]]
structure_notation = "Cn1ncc2c(NCc3ccccc3F)ncnc21"
observed_property = "melting point"
test_value = "184 to 185 °C"


* * *

// melting point lookup, one value per entry
observed property: melting point

[[record]]
compound = "Cn1ncc2c(NCCc3ccccc3F)ncnc21 [Compound 21]"
test_value = "139 to 140 °C"

[[record]]
compound = "CC(C)(C)n1ncc2c(NCc3ccc(Cl)c(Cl)c3)ncnc21 [Compound 19]"
test_value = "120 to 123 °C"

[[record]]
compound = "Cn1ncc2c(NCCc3c[nH]c4ccccc34)ncnc21"
test_value = "183 to 185 °C"

[[record]]
compound = "CCOC(=O)CNc1ncnc2c1cnn2C [Compound 5]"
test_value = "141 to 142 °C"

[[record]]
compound = "CC(C)(C)n1ncc2c(NCc3ccco3)ncnc21 [Compound 8]"
test_value = "101 to 103 °C"

[[record]]
compound = "Cn1ncc2c(NCCc3ccccc3)ncnc21 [Compound 20]"
test_value = "101 to 103 °C"

